Test system: Escherichia coli BW25113
MEASUREMENT_PROTOCOL: plate-normalized OD600 growth (mean of duplicates) (OD600 (normalized)); higher = more growth (less inhibition)
RUN_CONDITIONS: temperature: 15°C; 48 h; 10 µM
Whole data set: some 1,600 compounds, median “plate-normalized OD600 growth (mean of duplicates)” near 0.31, cut for the lowest 2% near 0.23. The entries come from a sample that favours the lowest values as a whole.
QUANTITY_KIND: plate-normalized OD600 growth
Number only, no unit.

NS(=O)(=O)c1ccc(NC(=O)c2ccccc2Cl)cc1
0.24
Cc1cc(C)n(C(=O)c2ccccc2Br)n1
0.226
OC(COc1ccc(C23CC4CC(CC(C4)C2)C3)cc1)CN1CCOCC1 (stereo not drawn)
0.243
Brc1ccc(CN2CCN(c3ccccn3)CC2)cc1
0.267

Please look up its plate-normalized OD600 growth: Cc1ccccc1OCCCCN1CCCCC1
0.265

// repeat for CC(C)(C)C(=O)ON1C(=O)c2ccccc2C1=O and report
0.25

// repeat for c1ccc(OCCCCN2CCCCC2)cc1 and report
0.241

// repeat for CCC1CCCCN1C(=O)c1cccc([N+](=O)[O-])c1C (stereo not drawn) and report
0.247

// repeat for Cc1cc(C)n(C(=O)c2ccc(Cl)cc2)n1 and report
0.256

// repeat for COc1ccc(CNCCC2CCOC(C)(C)C2)cc1 (stereo not drawn) and report
0.263

// repeat for c1cc2cn[nH]c2cc1NC1CCCCCC1 and report
0.233

// repeat for Cc1ccccc1C(=O)N1CCCCC1CO (stereo not drawn) and report
0.294

// repeat for Fc1ccccc1OCCCCN1CCCCC1 and report
0.214
